src = ChEMBL document CHEMBL2321803

Test: Metabolic stability in human microsomes after 20 mins
Format: ADME, Microsome
Details: read-out: Stability
Quantity Kind: remaining at 20 min (%)
Numbers only, in %.

Which remaining at 20 min is listed for Cc1cc(Oc2cccc(Cn3ccnc3)c2)cc(C)c1Cl ?
39

* * *

Molecular target: Sterol 14-alpha demethylase (Trypanosoma cruzi (strain CL Brener))
Sequence (Q7Z1V1 whole entry): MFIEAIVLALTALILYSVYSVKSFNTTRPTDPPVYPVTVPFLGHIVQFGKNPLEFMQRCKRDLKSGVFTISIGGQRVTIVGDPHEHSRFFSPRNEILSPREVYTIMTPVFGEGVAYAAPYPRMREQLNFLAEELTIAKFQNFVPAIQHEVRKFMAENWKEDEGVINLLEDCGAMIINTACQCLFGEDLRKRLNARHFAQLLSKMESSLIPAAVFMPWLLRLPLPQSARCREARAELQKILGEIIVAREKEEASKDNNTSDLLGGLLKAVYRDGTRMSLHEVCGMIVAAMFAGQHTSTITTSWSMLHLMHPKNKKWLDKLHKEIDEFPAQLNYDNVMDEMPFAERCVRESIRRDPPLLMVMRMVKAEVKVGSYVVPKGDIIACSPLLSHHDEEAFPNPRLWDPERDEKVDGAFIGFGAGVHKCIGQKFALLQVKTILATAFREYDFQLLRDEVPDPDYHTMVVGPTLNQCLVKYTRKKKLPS
Experiment: Binding affinity to Trypanosoma cruzi recombinant full length CYP51 by spectrophotometric analysis
Please go through the items and note down their Kd.
Remember to quote the unit after the number.

Test Smiles	Value Measured
Cc1cc(Oc2cccc(Cn3ccnc3)c2)cc(C)c1Cl	67 nM
COc1cccc(Nc2cccc(Cn3ccnc3)c2)c1	210 nM

Batch: Kd for all items listed.
1. O=C(N[C@@H](Cn1ccnc1)c1ccccc1)c1ccc(-c2ccc(Cl)cc2)cc1
2. Cc1ccccc1Oc1cccc(Cn2ccnc2)c1

1: 70 nM; 2: 180 nM
